Each recorded value in this set is attributed to patent US10881663B2.

Assay: Single-dose IV meloxicam pharmacokinetics in elderly subjects with mild renal impairment vs healthy controls (Example 3)
Assay type: in vivo, human
Settings: both sexes, human, plasma, iv, 30 mg, single IV dose 30 mg; Cohort 1 (mild renal impairment); read-out: Cmax, Least Square Geometric Mean
quantity kind: Cmax (ng/mL)
Response body: numeric value in ng/mL, unit text excluded.

The reported Cmax of the compound Cc1cnc(NC(=O)C2=C(O)c3ccccc3S(=O)(=O)N2C)s1 was 5870

====

Assay: Single-dose IV meloxicam pharmacokinetics in elderly subjects with mild renal impairment vs healthy controls (Example 3)
Assay type: in vivo, human
Details: both sexes, human, plasma, iv, 30 mg, single IV dose 30 mg; Cohort 1 (65-80 years, mild renal impairment); read-out: AUC0-24 (Mean ± SD)
Method: This study was a single-center, open-label evaluation of the pharmacokinetics and safety, of single doses of meloxicam in elderly subjects with impaired renal function compared with healthy controls. The study enrolled 12 subjects. Eligible subjects were assigned to a study cohort based on their age and renal function. Renal function was assessed using below the equation for estimation of the glomerular filtration rate (GFR). SCr=serum creatinine measured with a standardized assay. […]
quantity kind: AUC(0-t) (ng·h/mL)
Give the value, in units of ng·h/mL, as a plain number.

Lab note: Cc1cnc(NC(=O)C2=C(O)c3ccccc3S(=O)(=O)N2C)s1 gave AUC(0-t) of 40600

====

Assay: Single-dose IV meloxicam pharmacokinetics in elderly subjects with mild renal impairment vs healthy controls (Example 3)
Format: in vivo, human
Conditions: both sexes, human, plasma, iv, 30 mg, single IV dose 30 mg; Cohort 2 (18-55 years, normal renal function); read-out: AUC0-∞ (Mean ± SD)
quantity kind: AUC(0-inf) (ng·h/mL)
Use ng·h/mL as the unit, but write only the number.

Measured AUC(0-inf), Cc1cnc(NC(=O)C2=C(O)c3ccccc3S(=O)(=O)N2C)s1 [meloxicam] : 68500

====

Assay: Single-dose IV meloxicam pharmacokinetics in elderly subjects with mild renal impairment vs healthy controls (Example 3)
Assay type: in vivo, human
Details: both sexes, human, plasma, iv, 30 mg, single IV dose 30 mg; Cohort 1 (mild renal impairment); read-out: AUC0-∞, Least Square Geometric Mean
quantity kind: AUC(0-inf) (ng·h/mL)
Dear colleague, please return just the value in ng·h/mL, with no unit written.

Field AUC(0-inf) (entry Cc1cnc(NC(=O)C2=C(O)c3ccccc3S(=O)(=O)N2C)s1 ) reads 69800

====

Test: Single-dose IV meloxicam pharmacokinetics in elderly subjects with mild renal impairment vs healthy controls (Example 3)
Format: in vivo, human
Conditions: both sexes, human, plasma, iv, 30 mg, single IV dose 30 mg; Cohort 1 (65-80 years, mild renal impairment); read-out: AUC0-12 (Mean ± SD)
quantity kind: AUC(0-t) (ng·h/mL)
Your answer should be a plain number; it is taken to be in ng·h/mL.

Input Cc1cnc(NC(=O)C2=C(O)c3ccccc3S(=O)(=O)N2C)s1 [meloxicam] . Output AUC(0-t): 26000

====

Experiment: Single-dose IV meloxicam pharmacokinetics in elderly subjects with mild renal impairment vs healthy controls (Example 3)
Type: in vivo, human
Settings: both sexes, human, plasma, iv, 30 mg, single IV dose 30 mg; Cohort 2 (18-55 years, normal renal function); read-out: AUC0-12 (Mean ± SD)
quantity kind: AUC(0-t) (ng·h/mL)
Express your answer in ng·h/mL, writing the number without its unit.

For Cc1cnc(NC(=O)C2=C(O)c3ccccc3S(=O)(=O)N2C)s1 the molecule record lists AUC(0-t) as 26400

====

Test: Single-dose IV meloxicam pharmacokinetics in elderly subjects with mild renal impairment vs healthy controls (Example 3)
Type: in vivo, human
Conditions: both sexes, human, plasma, iv, 30 mg, single IV dose 30 mg; Cohort 2 (18-55 years, normal renal function); read-out: AUC0-24 (Mean ± SD)
quantity kind: AUC(0-t) (ng·h/mL)
Give the quantity in ng·h/mL, number only.

In plain terms, Cc1cnc(NC(=O)C2=C(O)c3ccccc3S(=O)(=O)N2C)s1 has a documented AUC(0-t) of 41000

====

Test: Single-dose IV meloxicam pharmacokinetics in elderly subjects with mild renal impairment vs healthy controls (Example 3)
Format: in vivo, human
Settings: both sexes, human, plasma, iv, 30 mg, single IV dose 30 mg; Cohort 2 (healthy control); read-out: Cmax, Least Square Geometric Mean
quantity kind: Cmax (ng/mL)
Field format: number, assumed ng/mL, no unit text.

get_value(item= Cc1cnc(NC(=O)C2=C(O)c3ccccc3S(=O)(=O)N2C)s1 , readout=Cmax) returns 5580

====

Experiment: Single-dose IV meloxicam pharmacokinetics in elderly subjects with mild renal impairment vs healthy controls (Example 3)
Assay type: in vivo, human
Conditions: both sexes, human, plasma, iv, 30 mg, AUC0-6 (Mean ± SD), single IV dose 30 mg; Cohort 2 (18-55 years, normal renal function); heading: AUC0-6
quantity kind: AUC(0-6) (ng·h/mL)
Use ng·h/mL as the unit, but write only the number.

AUC(0-6) recorded for this molecule, Cc1cnc(NC(=O)C2=C(O)c3ccccc3S(=O)(=O)N2C)s1 , is 16300

====

Experiment: Single-dose IV meloxicam pharmacokinetics in elderly subjects with mild renal impairment vs healthy controls (Example 3)
Assay type: in vivo, human
Conditions: both sexes, human, plasma, iv, 30 mg, single IV dose 30 mg; Cohort 2 (healthy control); read-out: AUC0-t, Least Square Geometric Mean
quantity kind: AUC(0-t) (ng·h/mL)
Could you give me the number in ng·h/mL? Just the number is fine.

Consider Cc1cnc(NC(=O)C2=C(O)c3ccccc3S(=O)(=O)N2C)s1 . Its measured AUC(0-t) is 64500

====

Experiment: Single-dose IV meloxicam pharmacokinetics in elderly subjects with mild renal impairment vs healthy controls (Example 3)
Type: in vivo, human
Settings: both sexes, human, plasma, iv, 30 mg, single IV dose 30 mg; Cohort 1 (mild renal impairment); read-out: AUC0-t, Least Square Geometric Mean
quantity kind: AUC(0-t) (ng·h/mL)
Quick note: give the figure in ng·h/mL, leave out the unit.

AUC(0-t) for Cc1cnc(NC(=O)C2=C(O)c3ccccc3S(=O)(=O)N2C)s1 [meloxicam] is 69100

====

Test: Single-dose IV meloxicam pharmacokinetics in elderly subjects with mild renal impairment vs healthy controls (Example 3)
Format: in vivo, human
Conditions: both sexes, human, plasma, iv, 30 mg, single IV dose 30 mg; Cohort 2: aged 18 to 55 years, normal renal function; plasma; read-out: Cmax (Mean ± SD)
quantity kind: Cmax (ng/mL)
A number alone suffices; assume ng/mL.

Please fill in: Cmax reported for Cc1cnc(NC(=O)C2=C(O)c3ccccc3S(=O)(=O)N2C)s1 = 5620

====

Experiment: Single-dose IV meloxicam pharmacokinetics in elderly subjects with mild renal impairment vs healthy controls (Example 3)
Type: in vivo, human
Details: both sexes, human, plasma, iv, 30 mg, single IV dose 30 mg; Cohort 2 (18-55 years, normal renal function); read-out: AUC0-t (Mean ± SD)
quantity kind: AUC(0-t) (µg·h/mL)
API: value field is a number in µg·h/mL; no unit string.

Form: compound = Cc1cnc(NC(=O)C2=C(O)c3ccccc3S(=O)(=O)N2C)s1 ; AUC(0-t) = 67.9

====

Assay: Single-dose IV meloxicam pharmacokinetics in elderly subjects with mild renal impairment vs healthy controls (Example 3)
Type: in vivo, human
Details: both sexes, human, plasma, iv, 30 mg, single IV dose 30 mg; Cohort 1 (65-80 years, mild renal impairment); read-out: AUC0-t (Mean ± SD)
quantity kind: AUC(0-t) (ng·h/mL)
Unit ng·h/mL implied. Number only.

The molecule Cc1cnc(NC(=O)C2=C(O)c3ccccc3S(=O)(=O)N2C)s1 showed AUC(0-t) equal to 70900

====

Test: Single-dose IV meloxicam pharmacokinetics in elderly subjects with mild renal impairment vs healthy controls (Example 3)
Format: in vivo, human
Details: both sexes, human, plasma, iv, 30 mg, single IV dose 30 mg; Cohort 1 (65-80 years, mild renal impairment); read-out: AUC0-∞ (Mean ± SD)
Method: This study was a single-center, open-label evaluation of the pharmacokinetics and safety, of single doses of meloxicam in elderly subjects with impaired renal function compared with healthy controls. The study enrolled 12 subjects. Eligible subjects were assigned to a study cohort based on their age and renal function. Renal function was assessed using below the equation for estimation of the glomerular filtration rate (GFR). SCr=serum creatinine measured with a standardized assay. […]
quantity kind: AUC(0-inf) (ng·h/mL)
# output: bare number, implied unit ng·h/mL

// field: AUC(0-inf); key: Cc1cnc(NC(=O)C2=C(O)c3ccccc3S(=O)(=O)N2C)s1 ; value = 71800
